The measurements presented in this section are drawn from patent US12371428B2.

Molecular target: KDR (phospho-KDR, VEGF165-stimulated HUVEC cells) (Homo sapiens (Human), UniProt P35968)
Sequence (P35968 20-1356): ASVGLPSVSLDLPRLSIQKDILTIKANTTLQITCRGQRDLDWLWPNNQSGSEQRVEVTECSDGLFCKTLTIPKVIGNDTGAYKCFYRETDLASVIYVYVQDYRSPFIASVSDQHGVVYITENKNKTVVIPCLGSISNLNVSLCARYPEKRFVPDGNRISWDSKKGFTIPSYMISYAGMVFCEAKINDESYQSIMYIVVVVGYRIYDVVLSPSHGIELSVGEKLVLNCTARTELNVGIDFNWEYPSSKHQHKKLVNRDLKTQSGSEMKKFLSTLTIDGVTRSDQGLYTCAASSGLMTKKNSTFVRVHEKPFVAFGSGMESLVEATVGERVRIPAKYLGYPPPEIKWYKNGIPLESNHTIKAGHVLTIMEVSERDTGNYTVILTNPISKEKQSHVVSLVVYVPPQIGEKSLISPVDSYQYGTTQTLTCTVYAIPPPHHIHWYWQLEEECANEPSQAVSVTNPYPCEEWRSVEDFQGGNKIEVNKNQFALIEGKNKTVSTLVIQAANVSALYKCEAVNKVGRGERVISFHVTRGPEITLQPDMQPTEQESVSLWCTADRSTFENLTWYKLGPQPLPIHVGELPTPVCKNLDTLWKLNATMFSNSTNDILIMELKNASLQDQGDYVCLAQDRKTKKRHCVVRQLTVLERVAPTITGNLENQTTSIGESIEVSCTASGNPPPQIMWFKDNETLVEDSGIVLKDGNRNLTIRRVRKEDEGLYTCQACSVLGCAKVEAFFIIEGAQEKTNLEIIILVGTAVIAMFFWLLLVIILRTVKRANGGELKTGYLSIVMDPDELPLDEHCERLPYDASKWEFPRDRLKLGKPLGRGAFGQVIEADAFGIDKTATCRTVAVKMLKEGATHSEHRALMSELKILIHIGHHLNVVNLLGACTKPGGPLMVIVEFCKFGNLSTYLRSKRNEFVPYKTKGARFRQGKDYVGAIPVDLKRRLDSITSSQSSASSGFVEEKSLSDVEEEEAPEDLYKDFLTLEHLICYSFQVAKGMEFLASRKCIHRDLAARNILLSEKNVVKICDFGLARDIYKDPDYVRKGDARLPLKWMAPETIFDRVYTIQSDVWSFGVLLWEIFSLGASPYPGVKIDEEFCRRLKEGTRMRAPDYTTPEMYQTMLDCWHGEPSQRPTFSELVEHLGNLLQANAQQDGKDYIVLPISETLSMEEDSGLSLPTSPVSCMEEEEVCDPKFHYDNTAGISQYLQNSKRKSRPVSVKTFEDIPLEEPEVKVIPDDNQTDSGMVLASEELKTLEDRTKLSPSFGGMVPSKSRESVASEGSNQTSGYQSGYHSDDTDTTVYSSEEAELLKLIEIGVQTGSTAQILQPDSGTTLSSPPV
Experiment: KDR autophosphorylation ELISA in HUVEC cells (Example G)
Format: cell-based
Details: cellular activity; KDR autophosphorylation ELISA in HUVEC cells
Procedure: Human umbilical vein endothelial cells or HUVEC (Lonza #C2519A) were seeded at 2×10^4 cells/well onto 96-well plates (Corning #3904), in EGM-2 growth medium (Lonza #CC-3162) containing 1% Penicillin Streptomycin (Thermo Fisher #15140-122). […] IC50 values were calculated by nonlinear regression analysis using a 4-parameter logistic curve fit in ActivityBase XE (IDBS).
# IC50 listing for each entry below

                         structure_notation  observation_type         result
0  COc1cnc2c(Oc3ccc(NC(=O)c4c(C)nc(C)n(-c5ccc(F)cc5)c4=O)cc3)ccnc2c1              IC50  100 to 300 nM
1  COc1cnc2c(Oc3ccc(NC(=O)c4ccnn(-c5ccc(F)cc5C)c4=O)cc3)ccnc2c1              IC50       < 100 nM
2  Cc1ncc(C(=O)Nc2ccc(Oc3ccnc4cnccc34)c(F)c2)c(O)c1-c1ccc(F)cc1              IC50       < 100 nM

Prompt: Which value of IC50 has been reported for `COc1ccc2nccc(Oc3ccc(NC(=O)c4cccn(-c5ccc(F)cc5)c4=O)cc3F)c2n1` in the records?
Response: < 100 nM

Prompt: Same lookup for `COc1ccc2nccc(Oc3ccc(NC(=O)c4cn(C(C)C)c(C)c(-c5ccc(F)cc5)c4=O)cc3)c2n1` , please.
Response: > 300 nM

Prompt: Also `COc1cc2nccc(Oc3ccc(NC(=O)c4c(C)ccn(-c5ccc(F)cc5)c4=O)cc3)c2nc1OC` ?
Response: < 100 nM

====

# reported pIC50; entries follow
Target: Human MET (residues 956-1390) (Homo sapiens (Human))
Sequence (P08581 956-1390): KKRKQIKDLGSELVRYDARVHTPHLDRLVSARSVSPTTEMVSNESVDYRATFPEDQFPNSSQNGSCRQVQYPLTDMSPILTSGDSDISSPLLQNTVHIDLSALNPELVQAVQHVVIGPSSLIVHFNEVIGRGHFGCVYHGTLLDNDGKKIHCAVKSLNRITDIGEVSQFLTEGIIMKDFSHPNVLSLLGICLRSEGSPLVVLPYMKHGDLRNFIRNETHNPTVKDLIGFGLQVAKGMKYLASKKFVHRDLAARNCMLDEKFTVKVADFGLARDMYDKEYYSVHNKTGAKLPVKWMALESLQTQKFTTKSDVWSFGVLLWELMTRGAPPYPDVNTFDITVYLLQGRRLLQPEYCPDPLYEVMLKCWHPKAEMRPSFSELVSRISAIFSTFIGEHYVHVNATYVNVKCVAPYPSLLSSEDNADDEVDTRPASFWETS
Test: Human Met kinase assay, HTRF KinEase (Example D-2)
Format: biochemical
Conditions: protocol of Example D-2; read-out: c-Met IC50
pIC50: −log10 of the molar value.

                                   compound                                 tested_on        result
0  COc1ccc2nccc(Oc3ccc(NC(=O)c4c(C)ncc(-c5ccc(F)cc5C)c4O)cc3F)c2n1 [Compound 480]  Human MET (residues 956-1390) (Homo sapiens (Human))  6.52 to 7.00
1  Cc1ncc(C(=O)Nc2ccc(Oc3ccnc4cnc(Cl)cc34)c(F)c2)c(O)c1-c1ccc(F)cc1 [Compound 641]  Human MET (residues 956-1390) (Homo sapiens (Human))  6.52 to 7.00
2  COc1ccc2nccc(Oc3ccc(NC(=O)c4cn(C)c(CF)c(-c5ccc(F)cc5)c4=O)cc3F)c2n1 [Compound 561]  Human MET (residues 956-1390) (Homo sapiens (Human))  6.52 to 7.00
3  COc1cc2nccc(Oc3ccc(NC(=O)c4cnc(COC(C)=O)c(-c5ccc(F)cc5)c4O)cc3F)c2nc1OC [Compound 544]  Human MET (residues 956-1390) (Homo sapiens (Human))        > 7.00
4  COc1nc2c(Oc3ccc(NC(=O)c4cnc(C)c(-c5ccc(F)cc5)c4O)cc3F)ccnc2cc1C(C)C [Compound 590]  Human MET (residues 956-1390) (Homo sapiens (Human))        < 6.52

Prompt: Endpoint output: pIC50 of COc1nc2c(Oc3ccc(NC(=O)c4cnc(C)c(-c5ccc(F)cc5C)c4O)cc3F)ccnc2cc1C(C)C [Compound 591] . Value?
Response: < 6.52

Prompt: # iterate: Cc1ncc(C(=O)Nc2ccc(Oc3ccnc4cc(C(C)C)cnc34)c(F)c2)c(O)c1-c1ccc(F)cc1 [Compound 596]
Response: > 7.00
